- assay target: T1, SEMG2(497-509) polypeptide QIEKLVEGKSQIQ (human)
- T1 peptide: QIEKLVEGKSQIQ
- test description: ELISA, immobilized antigen SEMG2 (497-509)
reported endpoint: A450 absorbance

binder	readout value
MM02 (antibody, IgG2b, V domains shown) VH: QIQLVQSGPEVKKPGETVRISCKASGYTLTTAGIQWVQKMPGKGLKWIGWINTHSGVPEYAEDFKGRFAFFLETSASTAYLQISNLKNEDTATYFCARLGLLGYWGQGTTLTVSS VL: DILLTQSPAILSVSPGERVSFSCRASQSIGTTIHWYQQRTNGSPRLLIKYASESISGIPSRFSGSGSGTDFTLSINSVESEDIADYYCQQSNSWPWTFGGGTKLEIKR	1.18
MM08 (antibody, IgG1, V domains shown) VH: QVQLQQPGAELVRPGASVKLSCKSSDYTFTRYWMNWVKQRPGQGLEWIGMIDPSDSETHHNQMFKDKATLTVDKSSSTAYMQLSSLTSEDSAVYFCARYLGGKEGSFDYWGQGTTLTVSS VL: DIVLTQSPSSLAVSAGERVTMSCKSSQSLFNSRTRKNYLAWYQQKPGQSPKLLLYWASTRESGVPDRFTGSGSGTDFTLTISSVKTEDLAVYYCKQSYELPWTFGGGTKLEMKR	1.14
MM05 (antibody, IgG1, V domains shown) VH: QVQLQQPGAELVRPGASVKLSCEASGYTFTSYWMNWVKQRPGQGLEWIGMIDPSDSETHYNQMFKDKATLTVDKSSSTAYMQLSSLTSEDSAVYYCARYLGGKEGSFDYWGQGTTLTVSS VL: DIVMSQSPSSLAVSAGEKVTMSCKSSQSLLNSRTRKNYLAWYQQKPGQSPKLLIYWASTRESGVPDRFTGSGSGTDFTLTISSVQAEDLAVYYCKQSYSLPWTFGGGTKLEIKR	1.17
MM07 (antibody, V domains shown, The VH and VL begin with what look like leader peptides (MDWLW..., MVSSAQ...)) VH: QIQLVQSGPELKKPGETVRISCKASGYTLTTAGMQWVQKIPGKGLKWIGWINTHSGVAEFAEDFKGRFAFSLETSANTAYLQIRNLKNEDTATYFCARLGLLGYWGQGTTLTVSS VL: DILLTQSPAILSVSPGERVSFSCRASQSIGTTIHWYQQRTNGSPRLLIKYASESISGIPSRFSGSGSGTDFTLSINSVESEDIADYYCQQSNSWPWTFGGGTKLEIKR	1.14
MM14 (antibody, IgG2b, V domains shown) VH: QVQLKESGPGLVAPSQSLSITCTVSGFSLTSYAVSWVRQPPGKGLEWLGIIWGDGSTNYHSALISRLSISKDNSKSQVFLKLNSLQTDDTATYYCAKQERFSDGYYDGFAYWGQGTLVTVSA VL: QIVLTQSPAIMSASPGEKVTITCSASSSVSYMHWFQQKPGTSPKLWIYSTSNLASGVPARFSGSGSGTSYSLTISRMEAEDAATYYCQQRSSYPFTFGSGTKLEIKR	1.11
